Source of measurements: paper PMC12334608

- tgt: ACOX-1.1(R343Q) (Caenorhabditis elegans, UniProt O62140, R343Q)
- protocol.notes: Enzyme-coupled kinetic assay, ACOX-1.1
pEC50: −log10 of the molar value.

smiles.input: Cc1cc2nc3c(=O)[nH]c(=O)nc-3n(C[C@H](O)[C@H](O)[C@H](O)COP(=O)(O)OP(=O)(O)OC[C@H]3O[C@@H](n4cnc5c(N)ncnc54)[C@H](O)[C@@H]3O)c2cc1C
tgt: ACOX-1.1(R343Q) (Caenorhabditis elegans, UniProt O62140, R343Q)
pEC50: < 3.00

====

- tgt: ACOX-1.1(R343A) (Caenorhabditis elegans, UniProt O62140, R343A)
- Sequence (O62140 1-674 R343A): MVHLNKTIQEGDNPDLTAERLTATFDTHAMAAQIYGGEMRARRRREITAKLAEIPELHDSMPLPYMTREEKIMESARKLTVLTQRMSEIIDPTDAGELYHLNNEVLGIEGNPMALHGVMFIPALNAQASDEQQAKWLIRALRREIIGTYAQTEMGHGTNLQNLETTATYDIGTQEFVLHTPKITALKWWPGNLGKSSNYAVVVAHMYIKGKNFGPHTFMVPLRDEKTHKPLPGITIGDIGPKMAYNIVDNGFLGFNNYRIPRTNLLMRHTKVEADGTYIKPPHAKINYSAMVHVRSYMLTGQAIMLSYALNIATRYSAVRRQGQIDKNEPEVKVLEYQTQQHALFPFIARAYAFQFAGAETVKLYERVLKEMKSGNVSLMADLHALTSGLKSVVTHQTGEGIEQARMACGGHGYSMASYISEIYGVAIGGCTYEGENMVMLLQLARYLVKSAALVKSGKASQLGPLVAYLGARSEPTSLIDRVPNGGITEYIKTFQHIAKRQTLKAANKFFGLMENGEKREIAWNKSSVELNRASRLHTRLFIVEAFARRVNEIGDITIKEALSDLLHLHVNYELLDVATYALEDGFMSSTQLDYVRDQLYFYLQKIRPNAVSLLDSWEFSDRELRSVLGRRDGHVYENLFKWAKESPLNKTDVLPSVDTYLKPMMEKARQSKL
- protocol.notes: Enzyme-coupled kinetic assay, ACOX-1.1
pEC50: −log10 of the molar value.
recorded.endpoint: pEC50

compound: Cc1cc2nc3c(=O)[nH]c(=O)nc-3n(C[C@H](O)[C@H](O)[C@H](O)COP(=O)(O)OP(=O)(O)OC[C@H]3O[C@@H](n4cnc5c(N)ncnc54)[C@H](O)[C@@H]3O)c2cc1C [FAD]
tgt: ACOX-1.1(R343A) (Caenorhabditis elegans, UniProt O62140, R343A)
reading: < 3.00
